# measurement.protocol: qHTS Assay for Lipid Storage Modulators in Drosophila S3 Cells;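 for cell number change: cells counted by Cell Tracker Red CMTPX staining in the red channel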
# experimental.parameters: BODIPY lipid droplet fluorescence, 18-24 h, cells fed with added oleic acid; measured here: cell count max response
Hit rate of the full screen: of about 320,000 compounds, about 2,100 (0.66%) were called active. About 53% were inconclusive and are not listed. What follows is part of a selection rich in actives, with near analogues and random picks from the rest.
experimental.readout: cell number change
Just the number plus its unit, please.

Given O=C(C#Cc1ccccc1)Nc1cccc(F)c1 , state its recorded cell number change. -19.6%

Please answer likewise for CCn1c(=O)c(=O)[nH]c2c(=O)oc3ccc(S(=O)(=O)Nc4ccc(OC)cc4)cc3c21 1.26%

Please answer likewise for Cc1noc(C)c1S(=O)(=O)N1CCC(C(N)=O)CC1 -15.5%

Please answer likewise for O=C(O)COc1ccc(/C=N/NC(=O)c2ccccc2Br)cc1 -13.2%

Please answer likewise for O=[N+]([O-])c1cccc(CN(CCO)Cc2ccccc2)c1 -9.58%

Please answer likewise for Cc1nn(C)c(=S)n1-c1ccc(Cl)cc1 4.59%

Please answer likewise for Cc1n[nH]c(=S)n1-c1ccccc1 8.27%

Please answer likewise for CS(=O)(=O)N(CC(=O)N1CCc2ccccc2C1)Cc1ccc(F)cc1 -12.3%

Please answer likewise for S=c1[nH]nc(COc2ccc3ccccc3c2)o1 -7.51%

Please answer likewise for COc1ccc(NS(=O)(=O)c2ccc3oc(=O)ccc3c2)cc1 -11.6%

Please answer likewise for O=C(Nc1cccc(F)c1)c1ccccc1 -17.1%

Please answer likewise for Cc1ccc(S(=O)(=O)Nc2c(O)c3ccccc3oc2=O)cc1C 6.35%

Please answer likewise for COCCN(CC1CCCN(C2Cc3ccccc3C2)C1)C(=O)CCC(F)(F)F (centres undefined) 20.2%

Please answer likewise for CCC(=O)Nc1c2c(nn1-c1ccc(OC)cc1)CS(=O)C2 (centres undefined) -17%

Please answer likewise for O=C(CN(Cc1ccc(F)cc1)S(=O)(=O)c1ccccc1)N1CCCCC1 -14.4%

Please answer likewise for O=C(COc1ccc(/C=N/NC(=O)c2ccccc2O)cc1)Nc1ccccc1 -17.8%

Please answer likewise for Cc1cccc2sc(NC(=O)C3CSC4(C)CCC(=O)N34)nc12 (centres undefined) 14.2%

Please answer likewise for O=C(C#Cc1ccccc1)Nc1ccc(F)cc1 -2.07%

Please answer likewise for CC1(C)CC(NC(=S)Nc2ccc([N+](=O)[O-])cc2)CC(C)(C)N1 15.8%

Please answer likewise for COc1ccc(NC(=O)C#Cc2ccccc2)cc1 -23.3%

Please answer likewise for COc1ccc(NC(=O)Nc2ccc(OC)cc2)cc1 -101%

Please answer likewise for COc1ccc(NS(=O)(=O)c2ccc3oc(=S)[nH]c3c2)cc1 5.85%

Please answer likewise for O=C(Cn1nnc(-c2cccs2)n1)NCc1ccco1 14.3%

Please answer likewise for O=C(NNC(=O)c1cnccc1C(F)(F)F)c1ccccc1 8.28%

---

# measurement.protocol: qHTS Assay for Lipid Storage Modulators in Drosophila S3 Cells;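 for cell number change: cells counted by Cell Tracker Red CMTPX staining in the red channel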
# experimental.parameters: BODIPY lipid droplet fluorescence, 18-24 h, cells fed with added oleic acid; measured here: cell count max response
Out of some 320,000 compounds screened, about 2,100 (0.66%) were called active. Roughly 53% stayed inconclusive and do not appear here. For the sample, actives were picked, then their nearest neighbours and some compounds at random.
experimental.readout: cell number change (%)
Report as a plain number; the unit % is understood.

Given CC(=O)c1cc(C(=O)Nc2ccc3ccccc3c2)c(C)o1 , state its recorded cell number change. 16

Please answer likewise for Cc1ccc(Cl)cc1NC(=O)CNC(=O)N1CC(=O)Nc2ccccc21 -12.7

Please answer likewise for COC(=O)c1ccc(C(=O)OCCCc2nc3ccc(N)cc3[nH]2)cc1 2.42

Please answer likewise for C=CCN1C(=O)C2(OCCCO2)c2cc(Cl)ccc21 7.73

Please answer likewise for O=C(c1cccnc1)N1CCN(S(=O)(=O)c2ccc(Cl)cc2)CC1 -4.89

Please answer likewise for C=CCSc1nnc(NC(=O)C2CC(=O)N(Cc3ccc(C)cc3)C2)s1 (stereo not given) -7.78

Please answer likewise for Cc1ccc(-c2nn(-c3ccccc3)c3[nH]c(=O)c(CNCCN(C)C)cc23)cc1 -8.5

Please answer likewise for Cc1nn(-c2ccccc2)c2[nH]c(=O)c(CNc3ccc(N4CCOCC4)cc3)cc12 -0.634

Please answer likewise for CCOC(=O)Cc1csc(NS(=O)(=O)c2ccc(C(F)(F)F)cc2)n1 3.37

Please answer likewise for Cc1ccc(-n2nc3c(c2NC(=O)C2CCCC2)CS(=O)(=O)C3)cc1 -12.8

---

# measurement.protocol: qHTS Assay for Lipid Storage Modulators in Drosophila S3 Cells;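 for cell number change: cells counted by Cell Tracker Red CMTPX staining in the red channel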
# experimental.parameters: BODIPY lipid droplet fluorescence, 18-24 h, cells fed with added oleic acid; measured here: cell count max response
The whole screen tested about 320,000 compounds, of which about 2,100 (0.66%) were called active. Roughly 53% stayed inconclusive and do not appear here. The list comes from a sample in which actives are over-represented; it also holds close analogues and randomly drawn compounds.
experimental.readout: cell number change
Just the number plus its unit, please.

Given COc1ccc(N(CC(=O)Nc2ccc(C)c(C)c2)S(=O)(=O)c2c(C)n[nH]c2C)cc1 , state its recorded cell number change. 4.08%

Please answer likewise for N=c1c(C(=O)NCc2ccco2)cc2c(=O)n3ccccc3nc2n1Cc1ccccc1 -4.14%

Please answer likewise for O=S(=O)(c1ccccc1)N1N=C(c2ccc(Br)cc2)CC1c1ccco1 (stereo not given) 13.4%

Please answer likewise for Cc1ccsc1CNC12CC3CC(CC(C3)C1)C2 10.4%

Please answer likewise for N=c1c(C(=O)NCc2ccccc2)cc2c(=O)n3ccccc3nc2n1CCCN1CCOCC1 -5.03%

Please answer likewise for N=c1c(C(=O)NCCN2CCOCC2)cc2c(=O)n3ccccc3nc2n1CCc1ccccc1 15.8%

Please answer likewise for Cc1ccc[n+](CC(=O)N2CCCc3ccccc32)c1 -16.8%

Please answer likewise for CC(=O)N1N=C(c2cccc(NS(=O)(=O)c3ccc(C)cc3)c2)CC1c1ccco1 (stereo not given) -6.11%

Please answer likewise for COc1cc(-c2nc(C(=O)NC3CCCCC3)cc3c2[nH]c2ccccc23)cc(OC)c1OC 13.2%

Please answer likewise for CC(=O)N1N=C(c2ccc(NS(=O)(=O)c3ccccc3)cc2)CC1c1ccco1 (stereo not given) -11.6%

Please answer likewise for CN(C)S(=O)(=O)c1ccc(C(=O)NCCSc2ccc(Br)cc2)cc1 20%

Please answer likewise for CCS(=O)(=O)Nc1ccc(C2=NN(S(=O)(=O)c3ccc(F)cc3)C(c3ccco3)C2)cc1 (stereo not given) 4.44%

Please answer likewise for N=c1c(C(=O)NCCN2CCOCC2)cc2c(=O)n3ccccc3nc2n1CCCN1CCOCC1 8.12%

Please answer likewise for Cc1ccc2c(c1)/C(=C/c1ccc(F)cc1)C(=O)N2 18%

Please answer likewise for COc1ccc(CCNC(=O)c2cc3c(=O)n4ccccc4nc3n(CCCN3CCOCC3)c2=N)cc1OC 3.54%

Please answer likewise for CN(C)S(=O)(=O)c1ccc2c(c1)/C(=C/c1cc3c([nH]1)CCCC3)C(=O)N2 2.43%

Please answer likewise for N=c1c(C(=O)NCCc2ccccc2)cc2c(=O)n3ccccc3nc2n1CCCN1CCOCC1 -19%

Please answer likewise for Cc1ccc(S(=O)(=O)c2cc3c(=O)n4ccccc4nc3n(C3CCCC3)c2=N)cc1 -1.32%

Please answer likewise for Cc1ccc(Cn2c(=N)c(C(=O)NCCN3CCOCC3)cc3c(=O)n4ccccc4nc32)cc1 21.5%

Please answer likewise for CN(C)S(=O)(=O)c1ccc2c(c1)Cc1cc(S(=O)(=O)N(C)C)ccc1-2 7.91%

---

# measurement.protocol: qHTS Assay for Lipid Storage Modulators in Drosophila S3 Cells
# experimental.parameters: BODIPY lipid droplet fluorescence, 18-24 h, cells fed with added oleic acid; series mostly up to 46.1 µM
About 2,100 (0.66%) of roughly 320,000 compounds were called active. Not shown: some 53% with an inconclusive outcome. Calls come from the whole dose curve; as a rule, active = well fitted inhibition curve with a large enough effect in the signal ratio, with a control signal flat (not every such curve was filed as active); inconclusive = small, poorly fitted or top-dose-only effect, or effect the other way, or a change in a side signal; inactive = flat fitted curve, though single readings scatter; the % refers to the signal ratio. The entries come from a sample that favours actives as a whole.
Classes to choose from: active, inactive

Hey, what did the test say about Nc1oc2ccccc2c(=O)c1-c1ccc2c(c1)OCO2 ? inactive

Please answer likewise for Cn1cc(CN2CCC(N3CCNC(=O)CC3)CC2)c(-c2ccccc2F)n1 inactive

Please answer likewise for COc1cccc(NC(=O)CSc2nc3scc(C)c3c(=O)[nH]2)c1 active

Please answer likewise for CCOC(=O)c1cc(CC)sc1/N=C/c1c(O)ccc2ccccc12 inactive

Please answer likewise for COc1ccccc1NC(=O)NCCN1CCCCC1 inactive

Please answer likewise for CC(C)CCNC(=O)C1CCC(=O)N1CCc1ccccc1 (stereo not drawn) inactive

Please answer likewise for CC1(C)CC(NC(=S)Nc2ccc([N+](=O)[O-])cc2)CC(C)(C)N1 inactive

Please answer likewise for COc1ccccc1NC(=O)N1CCCC1 inactive

Please answer likewise for O=C(NCCCn1ccnc1)Nc1ccc(Cl)cc1 inactive

Please answer likewise for Cc1cccc(-n2ncc3c(=O)[nH]c(SCC(=O)NCCC4=CCCCC4)nc32)c1 inactive

Please answer likewise for O=C(COC(=O)Cn1cnc2ccccc21)NCc1ccc(F)cc1 inactive

Please answer likewise for CCOC(=O)COc1ccc(S(=O)(=O)N2CCN(C(=O)OCC)CC2)cc1 inactive

Please answer likewise for COc1ccc(/C=C2\SC(=Nc3ccccc3OC)NC2=O)cc1 inactive

Please answer likewise for O=C(Nc1ccc(Cl)c(S(=O)(=O)N2CCOCC2)c1)c1ccc2c(c1)OCCO2 inactive

Please answer likewise for Nc1c(-c2ccc3c(c2)OCCO3)oc2ccccc2c1=O active

Please answer likewise for COc1ccccc1N=C1NC(=O)/C(=C/c2ccc(N(C)C)cc2)S1 active

Please answer likewise for CC1(C)CC2CC(C)(CN2S(=O)(=O)c2ccc(C(=O)Nc3ccc(Cl)c(S(=O)(=O)N4CCOCC4)c3)cc2)C1 (stereo not drawn) active

Please answer likewise for COc1ccccc1NC(=O)Nc1c(C)nn(C)c1C inactive

Please answer likewise for COc1ccccc1NC(=O)C1CCCN(S(=O)(=O)c2ccccc2)C1 (stereo not drawn) active

Please answer likewise for Cc1ccccc1C(=O)N1CCN(c2ccc(NC(=O)c3cccnc3)cc2)CC1 inactive

Please answer likewise for CN1CCN(NC(=O)c2ccc(S(=O)(=O)N3CC4(C)CC3CC(C)(C)C4)cc2)CC1 (stereo not drawn) inactive

Please answer likewise for O=C(COC(=O)Cn1cnc2ccccc21)NCCC1=CCCCC1 inactive

Please answer likewise for COc1ccccc1NC(=O)NN1CCCCC1 active
